Values compiled from patent US8999966B2.

- tested_on: UniProt:P63085
- assay_explanation: Active ERK2 assay (AERK2), IMAP format
- cond: activated ERK2, IMAP fluorescence polarization, 30 μM ATP
pIC50: −log10 of the molar value.
measured_property: pIC50

Examples with answers:
{"molecule": "C1=CCN(Cc2cccs2)[C@@H](c2nc(-c3ccc4[nH]nc(-c5ccc6c(c5)CCO6)c4c3)n[nH]2)C1 [Example 255]", "tested_on": "UniProt:P63085", "pIC50": "≤ 6.30"}
{"molecule": "Fc1cccc(F)c1CN1CCC[C@@H](c2nnc(-c3ccc4[nH]nc(-c5ccc6occc6c5)c4c3)o2)C1 [Example 348]", "tested_on": "UniProt:P63085", "pIC50": "< 6.00"}
{"molecule": "Fc1ccccc1CN1CCC[C@@H](c2nnc(-c3ccc4[nH]nc(-c5ccc6occc6c5)c4c3)o2)C1 [Example 347]", "tested_on": "UniProt:P63085", "pIC50": "≤ 6.30"}
{"molecule": "Cn1cc(CN2CCC[C@@H](c3nnc(-c4ccc5[nH]nc(-c6ccc7nccn7c6)c5c4)o3)C2)c2ccccc21 [Example 328]", "tested_on": "UniProt:P63085", "pIC50": "< 6.00"}
{"molecule": "COc1cccc(F)c1CN1CCC[C@@H](c2nnc(-c3ccc4[nH]nc(-c5ccc(O)c(NC(C)=O)c5)c4c3)o2)C1 [Example 314]", "tested_on": "UniProt:P63085", "pIC50": "7.98 to 9.52"}
{"molecule": "Fc1cccc(F)c1CN1CCCC(c2ccn(-c3ccc4[nH]nc(-c5ccncc5)c4c3)n2)C1 (stereo not drawn) [Example 367]", "tested_on": "UniProt:P63085", "pIC50": "< 6.00"}
{"molecule": "COc1cccc(F)c1CN1CCC[C@@H](c2nnc(-c3ccc4[nH]nc(-c5ccnc(C)c5)c4c3)o2)C1 [Example 336]", "tested_on": "UniProt:P63085", "pIC50": "7.98 to 9.52"}
{"molecule": "Cc1n[nH]c2ccc(-c3n[nH]c4ccc(-n5cc([C@@H]6CCCN(Cc7c(F)cccc7F)C6)nn5)cc34)cc12 [Example 247]", "tested_on": "UniProt:P63085", "pIC50": "≤ 6.30"}

Now consider a different molecule.
// query Returns the measured pIC50 for the input molecule. Input: COc1cccc(F)c1CN1CC=CC[C@@H]1c1nc(-c2ccc3[nH]nc(-c4ccc5c(c4)CCO5)c3c2)n[nH]1 [Example 253]
// result ≤ 6.30

###

- tested_on: fully phosphorylated, active Mouse ERK2 protein (Mus musculus, UniProt P63085)
- Sequence (P63085 whole entry): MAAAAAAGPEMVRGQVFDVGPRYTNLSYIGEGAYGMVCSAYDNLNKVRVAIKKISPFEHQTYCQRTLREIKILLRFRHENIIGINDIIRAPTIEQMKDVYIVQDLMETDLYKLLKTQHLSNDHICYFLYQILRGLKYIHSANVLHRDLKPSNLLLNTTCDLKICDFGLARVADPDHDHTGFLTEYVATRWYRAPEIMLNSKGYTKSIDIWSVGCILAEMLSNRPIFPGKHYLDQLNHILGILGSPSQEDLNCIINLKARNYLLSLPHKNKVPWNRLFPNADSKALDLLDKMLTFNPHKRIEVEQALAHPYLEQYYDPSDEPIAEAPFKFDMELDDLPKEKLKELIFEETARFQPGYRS
- assay_explanation: Active ERK2 assay (AERK2), IMAP format
- cond: activated ERK2, IMAP fluorescence polarization, 30 μM ATP
Listed below: IC50 values for each entry.

// query Returns the measured IC50 for the input compound. Input: Clc1cc(-c2n[nH]c3ccc(-c4nnc([C@@H]5CCCN(CC6CCCCC6)C5)o4)cc23)ccn1
// result ≥ 504 nM

// query Returns the measured IC50 for the input compound. Input: Fc1cccc(F)c1CN1CC=CC[C@@H]1c1nc(-c2ccc3[nH]nc(-c4ccc5c(c4)CCO5)c3c2)n[nH]1
// result ≥ 504 nM

// query Returns the measured IC50 for the input compound. Input: Fc1ccccc1CN1CCOC(c2cn(-c3ccc4[nH]nc(-c5ccncc5)c4c3)nn2)C1 (stereo not shown)
// result 0.3 to 10.4 nM

// query Returns the measured IC50 for the input compound. Input: CC(C)Oc1ccc(-c2n[nH]c3ccc(-c4n[nH]c([C@@H]5CCCN(Cc6c(F)cccc6F)C5)n4)cc23)cc1
// result ≥ 504 nM

// query Returns the measured IC50 for the input compound. Input: c1cc(CN2CCC[C@@H](c3nnc(-c4ccc5[nH]nc(-c6ccc7occc7c6)c5c4)o3)C2)ncn1
// result > 1000 nM

// query Returns the measured IC50 for the input compound. Input: COc1cccc(F)c1CN1CCCC(c2ccn(-c3ccc4[nH]nc(-c5ccncc5)c4c3)n2)C1 (stereo not shown)
// result > 1000 nM

// query Returns the measured IC50 for the input compound. Input: CCn1cc(-c2n[nH]c3ccc(-c4nnc([C@@H]5CCCN(Cc6cc(F)c(Cl)cc6Cl)C5)o4)cc23)cn1
// result > 1000 nM
